I'd be grateful if you could share measured 50.0 nM Empty Nanodisc binding (relative to 10D10N35Y) for these entries.
molecular target: T1, empty-ND (nanodisc without CB1); experiment: flow cytometry, yeast-displayed IgG, binding/display ratio
T1 construct: its only protein is the nanodisc scaffold; also called Empty Nanodisc
One number for each entry, in fold.

| Binder | Value observed |
| --- | --- |
| LIBC527814-1 (antibody, IgG1, V domains shown) VH: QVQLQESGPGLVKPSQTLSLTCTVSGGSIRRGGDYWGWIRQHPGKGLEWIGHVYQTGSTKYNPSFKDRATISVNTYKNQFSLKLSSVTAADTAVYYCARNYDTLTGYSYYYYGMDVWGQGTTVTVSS VL: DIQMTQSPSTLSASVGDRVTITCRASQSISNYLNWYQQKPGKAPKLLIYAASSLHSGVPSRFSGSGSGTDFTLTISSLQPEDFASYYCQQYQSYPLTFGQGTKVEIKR | 0.61 |

Okay, next one:
Request: Please report 50.0 nM Empty Nanodisc binding (relative to 10D10N35Y) for the following binder: LIBC527869-1 (antibody, V domains shown, also called LIBC527869-1 + VK1 germline fix(es)) VH: QVQLQESGPGLVKPSQTLSLTCTVSGGNIRRGGDYWAWIRQHPGKGLEWIGHIYHTGKTNYNPSFKGRATISVKTYKNQFSLKLSSVTAADTAVYYCARNYDTLSGNSYYYYGMDVWGQGTTVTVSS VL: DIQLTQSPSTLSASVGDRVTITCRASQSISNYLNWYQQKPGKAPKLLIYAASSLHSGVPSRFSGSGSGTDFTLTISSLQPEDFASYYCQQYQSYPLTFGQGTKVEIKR
Response: 0.97
